Where these numbers come from: patent US20250368745A1

- Test Target: T1, cynomolgus IL-18BP (cynomolgus monkey)
- T1 construct: also called cyno IL-18BP; cyIL-18BP
- T1 chain: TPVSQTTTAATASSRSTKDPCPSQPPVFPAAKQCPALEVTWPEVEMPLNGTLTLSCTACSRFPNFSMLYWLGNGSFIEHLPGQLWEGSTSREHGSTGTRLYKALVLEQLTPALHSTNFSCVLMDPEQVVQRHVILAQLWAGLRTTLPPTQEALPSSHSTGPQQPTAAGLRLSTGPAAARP
- Test Name: BLI, apparent KD
Reported Endpoint: Kd (pM)
Respond with the bare value in pM.

Binder	Reported Endpoint	Experimental Result
SA301a HC-V100aT (antibody, name in Kabat numbering, V domains shown, IgG1 kappa) VH: QVQLQESGPGLVKPSQTLSLTCTVSGYSITSDYNSHWIRQPPGKGLEWIGYIHYSGSTNYNPSLKSRVTISRDTSKNQFSLKLSSVTAADTAVYYCARNYGSIYTNYFDYWGQGTLVTVSS VL: EIVLTQSPATLSLSPGERATLSCSASSSVSYMYWYQQKPGQAPRPLIYRTSNLASGIPARFSGSGSGTDFTLTISSLEPEDFAVYYCQQYHSYPTFGGGTKVEIK	Kd	60

INPUT: Item under review: SA301a HC-V100aN (antibody, name in Kabat numbering, V domains shown, IgG1 kappa) VH: QVQLQESGPGLVKPSQTLSLTCTVSGYSITSDYNSHWIRQPPGKGLEWIGYIHYSGSTNYNPSLKSRVTISRDTSKNQFSLKLSSVTAADTAVYYCARNYGSIYNNYFDYWGQGTLVTVSS VL: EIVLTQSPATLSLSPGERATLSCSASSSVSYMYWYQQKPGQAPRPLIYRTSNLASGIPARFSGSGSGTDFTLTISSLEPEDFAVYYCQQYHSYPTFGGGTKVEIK . Reported Kd?
OUTPUT: 110
